Experiment: Components of the Cytosolic LPS Sensing Pathway: Gene Identification via Genome-wide siRNA Screen
Conditions: RAW264.7 macrophages, IL-1a HTRF, actives lie on both sides, screened at 100 nM (by protocol), cells primed 5 h with Pam3CSK4 first
Hit rate of the full screen: of about 53,000 sequences, about 3,700 (7%) were called active. This excerpt belongs to a sample that is enriched for actives.
Our labelling divides records by z-score into ranges: lower segment (below -0.5), middle segment (-0.5 to below 0.4), upper segment (0.4 or more)

chain="GCUGUUAAGUAAUGACAGATT against Chst7" classification="upper segment"
chain="CCUUGGACUGAUAUUAGCUTT against Dtx3" classification="middle segment"
chain="CCAGCUGUGUAACACUACCTT against Gfi1" classification="upper segment"
chain="GGACAUGCUCUAUAAGAAGTT against Pabpc5" classification="lower segment"
chain="GGAGCUACCUCUGGAUACATT against Tmem269" classification="upper segment"
chain="GGGUGUACCUUAUGUAUUATT against Prpf4" classification="upper segment"
chain="GGUGCUUUAUUAGGUAUUCTT against Atp6v1g3" classification="lower segment"
chain="CCAUACACAUGUAAUUCUCTT against Zmat3" classification="middle segment"
chain="GGAAGAUUUGGAAAAUGGATT against Dph3" classification="lower segment"
chain="GGUACUUCUCAUGGAUAAATT against Vps45" classification="middle segment"
chain="CCGCAUUUCAGACAUAGGCTT against Olfr248" classification="lower segment"
chain="GCAGGAUUCAAAGAUCUAATT against Kbtbd8" classification="lower segment"
chain="GGUGCUAUUUACCAAACUCTT against Btg2" classification="upper segment"
chain="GGCACACUUAAGUAAAAGUTT against Kras" classification="lower segment"
chain="GCUGACCAUUUUGAUGCCCTT against Adi1" classification="middle segment"
chain="GAUGUUUCAGAACAUUCUUTT against Cadps" classification="upper segment"
chain="GCCAGUGGAUGUUCAGAAUTT against Ccdc73" classification="middle segment"
chain="CCUCUACUCAAGUUUACUUTT against Casq2" classification="upper segment"
